- Tested on: DU-4475
- experiment notes: normalised response (% of control), CellTiter-Glo; higher = more viable cells (100 = DMSO, 0 = benzethonium chloride kill control)
- experimental setup: incubation time: 72 h
In this section we review reported normalised response values for a set of compounds.
readout label: normalised response (%)

> print(dat)
                                   compound  readout.units  endpoint.result
1  NS(=O)(=O)OC[C@@H]1C[C@@H](n2ccc3c(N[C@H]4CCc5ccccc54)ncnc32)C[C@@H]1O [Pevonedistat] (100 nM)              %             68.8
2  O=C(O)CCCc1ccc(N(CCCl)CCCl)cc1 [Chlorambucil] (100 nM)              %              104
3  Nc1ncnc2c1c(COc1cccc(Cl)c1)nn2C1CCOCC1 (100 nM)              %              100
4  CCCCCCCCc1ccc(CCC(N)(CO)CO)cc1 [Fingolimod] (100 nM)              %             99.7
5  CC(C)c1c(C(=O)Nc2ccccc2)c(-c2ccccc2)c(-c2ccc(F)cc2)n1CC[C@@H](O)C[C@@H](O)CC(=O)O [Atorvastatin] (100 nM)              %             98.6
6  CNNCc1ccc(C(=O)NC(C)C)cc1 [Procarbazine] (100 nM)              %              101
7  CC(C)(C#N)c1cc(Cn2cncn2)cc(C(C)(C)C#N)c1 [Anastrozole] (100 nM)              %              107

---

- System: MDA-MB-231
- experiment notes: drug sensitivity score (DSS), CellTiter-Glo (DSS (AUC-based score)); higher = stronger drug effect (viability inhibition or cytotoxicity); extreme values may be limits of the assay
- experimental setup: incubation time: 72 h
In this section we review reported drug sensitivity score values for a set of molecules.
readout label: drug sensitivity score

smiles	readout label	endpoint result
CCCCCCCCc1ccc(CCC(N)(CO)CO)cc1	drug sensitivity score	6.21
Cc1ccc(NC(=O)c2ccc(CN3CCN(C)CC3)cc2)cc1Nc1nccc(-c2cccnc2)n1	drug sensitivity score	0
CC[C@]1(O)C[C@H]2CN(CCc3c([nH]c4ccccc34)[C@@](C(=O)OC)(c3cc4c(cc3OC)N(C=O)[C@H]3[C@@](O)(C(=O)OC)[C@H](OC(C)=O)[C@]5(CC)C=CCN6CC[C@]43[C@@H]65)C2)C1	drug sensitivity score	11.5
COc1ccc(-c2ccc3c(N4CCOC[C@@H]4C)nc(N4CCOC[C@@H]4C)nc3n2)cc1CO	drug sensitivity score	16.8
C/C(=C\c1csc(C)n1)[C@@H]1C[C@@H]2O[C@]2(C)CCC[C@H](C)[C@H](O)[C@@H](C)C(=O)C(C)(C)[C@@H](O)CC(=O)O1	drug sensitivity score	6.83

---

- Tested on: HDQ-P1
- experiment notes: normalised response (% of control), CellTiter-Glo; higher = more viable cells (100 = DMSO, 0 = benzethonium chloride kill control)
- experimental setup: incubation time: 72 h
In this section we review reported normalised response values for a set of compounds.
readout label: normalised response (%)

> print(dat)
                                   compound        readout.label  endpoint.result
1  COc1ccccc1S(=O)(=O)Nc1ccc2c(c1)CN(C)C(=O)N2 [PFI-1] (100 nM)  normalised response             94.5
2  CNNCc1ccc(C(=O)NC(C)C)cc1 [Procarbazine] (100 nM)  normalised response              105
3  c1ccc([C@H]2CN3CCSC3=N2)cc1 [Levamisole] (100 nM)  normalised response              100
4  C[C@]12CC[C@H](O)CC1=CC[C@@H]1[C@@H]2CC[C@]2(C)C(c3cccnc3)=CC[C@@H]12 [Abiraterone] (50 nM)  normalised response              100
5  CN1CCN(CCOc2cc(OC3CCOCC3)c3c(Nc4c(Cl)ccc5c4OCO5)ncnc3c2)CC1 [Saracatinib] (100 nM)  normalised response             93.5

---

- Tested on: CAL-120
- experiment notes: drug sensitivity score (DSS), CellTox Green (DSS (AUC-based score)); higher = stronger drug effect (viability inhibition or cytotoxicity); extreme values may be limits of the assay
- experimental setup: incubation time: 72 h
In this section we review reported drug sensitivity score values for a set of compounds.
readout label: drug sensitivity score

> print(dat)
                                   compound           readout.label  endpoint.result
1    Nc1ncnc2c1c(COc1cccc(Cl)c1)nn2C1CCOCC1  drug sensitivity score                0
2  Cc1ccc(NC(=O)c2ccc(CN3CCN(C)CC3)cc2)cc1Nc1nccc(-c2cccnc2)n1  drug sensitivity score                0
3  CC(C)c1c(C(=O)Nc2ccccc2)c(-c2ccccc2)c(-c2ccc(F)cc2)n1CC[C@@H](O)C[C@@H](O)CC(=O)O  drug sensitivity score             1.49
4  CN(C)CCN1C(=O)c2cccc3cc(N)cc(c23)C1=O [Amonafide]  drug sensitivity score                0
5  COc1ccc(-c2ccc3c(N4CCOC[C@@H]4C)nc(N4CCOC[C@@H]4C)nc3n2)cc1CO  drug sensitivity score                0
6  COc1ccccc1S(=O)(=O)Nc1ccc2c(c1)CN(C)C(=O)N2  drug sensitivity score                0
7  NS(=O)(=O)OC[C@@H]1C[C@@H](n2ccc3c(N[C@H]4CCc5ccccc54)ncnc32)C[C@@H]1O  drug sensitivity score                0

---

- Tested on: Hs578T
- experiment notes: normalised viability (% of control), CellTiter-Blue; higher = more viable cells (about 100 = DMSO control)
- experimental setup: 1000 nM; incubation time: 72 h
readout label: normalised viability (%)

> print(dat)
                                     smiles  endpoint.result
1            CCCCCCCCc1ccc(CCC(N)(CO)CO)cc1              100
2            O=C(O)CCCc1ccc(N(CCCl)CCCl)cc1              102
3                 CNNCc1ccc(C(=O)NC(C)C)cc1              103
4  COc1ccc(-c2ccc3c(N4CCOC[C@@H]4C)nc(N4CCOC[C@@H]4C)nc3n2)cc1CO             23.7
5  CC(C)(C#N)c1cc(Cn2cncn2)cc(C(C)(C)C#N)c1             95.7

---

- Test system: CAL-148
- experiment notes: normalised response (% of control), CellTiter-Glo; higher = more viable cells (100 = DMSO, 0 = benzethonium chloride kill control)
- experimental setup: incubation time: 72 h
readout label: normalised response (%)

compound	endpoint result
c1ccc([C@H]2CN3CCSC3=N2)cc1 [Levamisole] (1 nM)	113
CO[C@H]1C[C@@H]2CC[C@@H](C)[C@@](O)(O2)C(=O)C(=O)N2CCCC[C@H]2C(=O)O[C@H]([C@H](C)C[C@@H]2CC[C@@H](OCCO)[C@H](OC)C2)CC(=O)[C@H](C)/C=C(\C)[C@@H](O)[C@@H](OC)C(=O)[C@H](C)C[C@H](C)/C=C/C=C/C=C/1C [Everolimus] (0.1 nM)	80.7
C/C(=C\c1csc(C)n1)[C@@H]1C[C@@H]2O[C@]2(C)CCC[C@H](C)[C@H](O)[C@@H](C)C(=O)C(C)(C)[C@@H](O)CC(=O)O1 [Patupilone] (100 nM)	37.4
COc1ccc(-c2ccc3c(N4CCOC[C@@H]4C)nc(N4CCOC[C@@H]4C)nc3n2)cc1CO [AZD8055] (1000 nM)	13.9
C/C(=C\c1csc(C)n1)[C@@H]1C[C@@H]2O[C@]2(C)CCC[C@H](C)[C@H](O)[C@@H](C)C(=O)C(C)(C)[C@@H](O)CC(=O)O1 [Patupilone] (1 nM)	106
CCCCCCCCc1ccc(CCC(N)(CO)CO)cc1 [Fingolimod] (1000 nM)	101
CC(C)(C#N)c1cc(Cn2cncn2)cc(C(C)(C)C#N)c1 [Anastrozole] (10 nM)	99.3
CC(C)c1c(C(=O)Nc2ccccc2)c(-c2ccccc2)c(-c2ccc(F)cc2)n1CC[C@@H](O)C[C@@H](O)CC(=O)O [Atorvastatin] (1000 nM)	105
O=C1NC(=O)[C@@H](c2cn3c4c(cccc24)CCC3)[C@@H]1c1c[nH]c2ccccc12 [Tivantinib] (100 nM)	96.9
Cn1cncc1[C@@](N)(c1ccc(Cl)cc1)c1ccc2c(c1)c(-c1cccc(Cl)c1)cc(=O)n2C [Tipifarnib] (1 nM)	97.3
CNNCc1ccc(C(=O)NC(C)C)cc1 [Procarbazine] (1 nM)	104
COc1ccccc1S(=O)(=O)Nc1ccc2c(c1)CN(C)C(=O)N2 [PFI-1] (1000 nM)	107
CN1CCN(CCOc2cc(OC3CCOCC3)c3c(Nc4c(Cl)ccc5c4OCO5)ncnc3c2)CC1 [Saracatinib] (10 nM)	91.6
C[C@]12CC[C@H](O)CC1=CC[C@@H]1[C@@H]2CC[C@]2(C)C(c3cccnc3)=CC[C@@H]12 [Abiraterone] (0.5 nM)	108
Cn1c(=O)n(-c2ccc(C(C)(C)C#N)cc2)c2c3cc(-c4cnc5ccccc5c4)ccc3ncc21 [Dactolisib] (100 nM)	30.4
NS(=O)(=O)OC[C@@H]1C[C@@H](n2ccc3c(N[C@H]4CCc5ccccc54)ncnc32)C[C@@H]1O [Pevonedistat] (10 nM)	109
CN(C)CCN1C(=O)c2cccc3cc(N)cc(c23)C1=O [Amonafide] (1 nM)	99.9
